The following molecules are shown together with reported melting point values.

I would be grateful if you could share the reported melting point for CCCCCCCC1=CC(=O)N(c2ccccc2)C1(O)CBr (stereo not given) .
152 to 154 °C

I would be grateful if you could share the reported melting point for CC1(C)CN=C(NCC2CCCc3ccc(S(=O)(=O)c4ccccc4)cc32)NC1 (stereo not given) .
140 to 145 °C

----------
The following molecules are shown together with reported melting point values.

Recorded melting point, per entry:
>  <molecule>
CCOc1cc(C(=CC#N)c2ccc(OC)c([N+](=O)[O-])c2)ccc1OC

>  <melting point>
141 to 143 °C

$$$$
>  <molecule>
N#Cc1cc(-c2nc3cncnc3s2)ccc1Oc1cccc(F)c1

>  <melting point>
189 to 190 °C

$$$$
>  <molecule>
CCOC(=O)C1=C(C)NC(C)=C(C(=O)OCCN2CCN(C(c3ccc(C)cc3)c3ccc(C)cc3)CC2)C1c1cccc(Cl)c1Cl (stereo not drawn)

>  <melting point>
85 to 88 °C

$$$$

I would be grateful if you could share the reported melting point for `CCCCOc1cc(/C=C(\OC)C(=O)O)ccc1CCCc1ccc(OS(=O)(=O)CCCC)c(OC)c1` .
72.5 °C

I would be grateful if you could share the reported melting point for CCCCCCCCC1CC1C(N)=O (stereo not drawn) .
109 to 110 °C

I would be grateful if you could share the reported melting point for `CC(=O)NCc1ccc2ccn(C3CCN(CCc4ccc(F)cc4)CC3)c2c1` .
127 to 128 °C

I would be grateful if you could share the reported melting point for `CC(C)(C)c1cc(CCC(=O)NCc2cccc(NC(=N)c3cccs3)c2)cc(C(C)(C)C)c1O` .
163 to 164 °C

----------
The following compounds are shown together with reported melting point values.

>  <compound>
COc1cccc(CSCCNC(=O)c2c(Cl)cccc2Cl)c1OC

>  <melting point>
108 to 110 °C

$$$$

I would be grateful if you could share the reported melting point for Cc1cccc(-c2cc(Cl)cc3c2OC(CN=[N+]=[N-])C3)c1 (stereo not given) .
48 to 50 °C

I would be grateful if you could share the reported melting point for `O=S(=O)(CC(Cl)(Cl)Cl)c1cc(Cl)ccc1Cl` .
96 °C

I would be grateful if you could share the reported melting point for `Cc1cc(-c2cscn2)ccc1-c1cc(C(F)(F)F)nn1-c1ccc(S(C)(=O)=O)c(F)c1` .
132 °C

I would be grateful if you could share the reported melting point for `CC(C)Oc1ccc(-c2cccs2)cc1C=O` .
186 to 187 °C

I would be grateful if you could share the reported melting point for O=C(O)C1CN(S(=O)(=O)c2ccc3cc(Cl)ccc3c2)CCN1C(=O)C1CCN(c2ccncc2)CC1 (stereo not given) .
215 to 220 °C

I would be grateful if you could share the reported melting point for `N#Cc1c[nH]c(-c2ccccc2)c1C#N` .
197 to 200 °C

----------
The following molecules are shown together with reported melting point values.

Recorded melting point, per entry:
>  <molecule>
O=S(=O)(Cc1ccccc1)N1CCC(c2ccc(O)cc2O)CC1

>  <measuredAttribute>
melting point

>  <measurement>
207 to 208 °C

$$$$
>  <molecule>
CCCCOCCOCCOc1ccc(-c2ccc(C(=O)O)cc2)cc1

>  <measuredAttribute>
melting point

>  <measurement>
174 to 176 °C

$$$$
>  <molecule>
CN(C)C=Nc1nc(OS(=O)(=O)c2ccccc2)ncc1F

>  <measuredAttribute>
melting point

>  <measurement>
124 to 125 °C

$$$$
>  <molecule>
COc1ccc(NC(=O)N(Cc2ccccc2)C2CCCCCC2)c(NC(=O)c2cc(C(C)(C)C)c(O)c(C(C)(C)C)c2)c1

>  <measuredAttribute>
melting point

>  <measurement>
125 to 130 °C

$$$$
>  <molecule>
CCOC(=S)Nc1ccccc1NC(=S)NC(=O)OC

>  <measuredAttribute>
melting point

>  <measurement>
172 °C

$$$$

I would be grateful if you could share the reported melting point for `COc1ccc(-c2cc(=Nc3c(C)cc(C)cc3C)n(C)c(Cl)n2)cc1OC` .
159 to 162 °C

I would be grateful if you could share the reported melting point for `C[C@H](NC(=O)C[C@@H](CCBr)c1ccc(F)cc1)c1ccccc1` .
156 to 158 °C

I would be grateful if you could share the reported melting point for CC(C=CCO)Oc1ccc(Oc2cnc3cc(F)ccc3n2)cc1 (centres undefined) .
109 to 111 °C

I would be grateful if you could share the reported melting point for `COc1ccc(-c2nc(-c3cccn3Cc3ccccc3)[nH]c2-c2ccc(OC)cc2)cc1` .
183 °C
